Where do these numbers come from? They come from patent US8415475B2.

System: Staphylococcus aureus (ATCC29213)
Test: In-vitro anti-bacterial microtitre plate assay, IC90, S. aureus
Assay type: cell-based
Conditions: 90% inhibitory concentration for bacterial growth, 24 hours, resazurin fluorescence
Provide the recorded IC90 values STA 1 B29213 for the entries that follow.
Give bare numbers, in µg/mL.

Illustrative cases are given below, each with its answer.
Enquiry: Endpoint output: IC90 values STA 1 B29213 of COc1nc2ccc(CN)cc2cc1C(c1ccccc1)C(O)(CCN(C)C)c1cccc2ccccc12 (single isomer, unassigned) [Compound 17] . Value?
Return: 8.0

Enquiry: Endpoint output: IC90 values STA 1 B29213 of COc1nc2ccc(N)cc2cc1C(c1ccccc1)C(O)(CCN(C)C)c1cccc2ccccc12 (single isomer, unassigned) [Compound 16] . Value?
Return: 43.8

Now look at this one.
Enquiry: Endpoint output: IC90 values STA 1 B29213 of COc1nc2ccc(CN)cc2cc1C(c1ccccc1)C(O)(CCN(C)C)c1cccc2ccccc12 (single isomer, unassigned) [Compound 20] . Value?
Return: 35.8

* * *

Test system: Streptococcus pyogens (ATCC8668)
Assay: In-vitro anti-bacterial microtitre plate assay, IC90, S. pyogens
Assay type: cell-based
Settings: Streptococcus, ATCC8668, 24 h, 90% inhibitory concentration for bacterial growth, resazurin fluorescence, read-out: IC90 values SPY 8668
Please note: IC90 exactly at 8 µg/mL is false. Only values below 8 µg/mL get true.

Enquiry: Does this compound meet the criterion IC90 < 8 µg/mL? COc1nc2ccc(N3CCOCC3)cc2cc1C(c1ccccc1)C(O)(CCN(C)C)c1ccccc1 (single isomer, unassigned)
Return: false

Enquiry: Does this compound meet the criterion IC90 < 8 µg/mL? C=Cc1ccc2nc(OC)c(C(c3ccccc3)C(O)(CCN(C)C)c3cccc4ccccc34)cc2c1 (single isomer, unassigned) [Compound 8]
Return: false

Continuing:
Enquiry: Does this compound meet the criterion IC90 < 8 µg/mL? CC#Cc1ccc2nc(OC)c(C(c3ccccc3)C(O)(CCN(C)C)c3cccc4ccccc34)cc2c1 (single isomer, unassigned)
Return: false

Enquiry: Does this compound meet the criterion IC90 < 8 µg/mL? COc1nc2ccc(/C=N/O)cc2cc1C(c1ccccc1)C(O)(CCN(C)C)c1cccc2ccccc12 (single isomer, unassigned)
Return: false

Enquiry: Does this compound meet the criterion IC90 < 8 µg/mL? C=Cc1ccc2nc(OC)c(C(c3ccc(Cl)cc3)C(O)(CCN(C)C)c3ccccc3)cc2c1 (single isomer, unassigned)
Return: true

* * *

System: Streptococcus pneumoniae (ATCC6305)
Test: In-vitro anti-bacterial microtitre plate assay, IC90, S. pneumoniae
Format: cell-based
Settings: 90% inhibitory concentration for bacterial growth, 24 hours, resazurin fluorescence
Please note: IC90 values SPN 1 6305 exactly at 2 µg/mL is not satisfied. Only values below 2 µg/mL get satisfied.

Answered cases to consult:
Enquiry: Does this compound meet the criterion IC90 values SPN 1 6305 < 2 µg/mL? C=Cc1ccc2nc(OC)c(C(c3ccc(Cl)cc3)C(O)(CCN(C)C)c3ccccc3)cc2c1 (single isomer, unassigned) [Compound 2]
Return: satisfied

Enquiry: Does this compound meet the criterion IC90 values SPN 1 6305 < 2 µg/mL? COc1nc2ccc(CN)cc2cc1C(c1ccccc1)C(O)(CCN(C)C)c1cccc2ccccc12 (single isomer, unassigned) [Compound 17]
Return: not satisfied

Continuing:
Enquiry: Does this compound meet the criterion IC90 values SPN 1 6305 < 2 µg/mL? C/C=C/c1ccc2nc(OC)c(C(c3ccccc3)C(O)(CCN(C)C)c3cccc4ccccc34)cc2c1 (single isomer, unassigned) [Compound 11]
Return: satisfied

* * *

Test system: Streptococcus pyogens (ATCC8668)
Assay: In-vitro anti-bacterial microtitre plate assay, IC90, S. pyogens
Type: cell-based
Conditions: 90% inhibitory concentration for bacterial growth, 24 hours, resazurin fluorescence
Provide the recorded IC90 values SPY 8668 for the entries that follow.
Answers are plain numbers, in µg/mL.

Enquiry: Query for Streptococcus pyogens (ATCC8668): what IC90 values SPY 8668 does the record show for COc1nc2ccc(CN)cc2cc1C(c1ccccc1)C(O)(CCN(C)C)c1cccc2ccccc12 (stereo not drawn) ?
Return: 6.37

Enquiry: Query for Streptococcus pyogens (ATCC8668): what IC90 values SPY 8668 does the record show for CO/N=C/c1ccc2nc(OC)c(C(c3ccccc3)C(O)(CCN(C)C)c3cccc4ccccc34)cc2c1 (single isomer, unassigned) [Compound 26] ?
Return: 53.37

Enquiry: Query for Streptococcus pyogens (ATCC8668): what IC90 values SPY 8668 does the record show for C/C=C/c1ccc2nc(OC)c(C(c3ccccc3)C(O)(CCN(C)C)c3cccc4ccccc34)cc2c1 (single isomer, unassigned) ?
Return: 51.67

Enquiry: Query for Streptococcus pyogens (ATCC8668): what IC90 values SPY 8668 does the record show for COc1nc2ccc(N3CCOCC3)cc2cc1C(c1ccccc1)C(O)(CCN(C)C)c1ccccc1 (single isomer, unassigned) ?
Return: 40.6

Enquiry: Query for Streptococcus pyogens (ATCC8668): what IC90 values SPY 8668 does the record show for CC#Cc1ccc2nc(OC)c(C(c3ccccc3)C(O)(CCN(C)C)c3cccc4ccccc34)cc2c1 (single isomer, unassigned) ?
Return: 40.88

Continuing:
Enquiry: Query for Streptococcus pyogens (ATCC8668): what IC90 values SPY 8668 does the record show for CO/N=C/c1ccc2nc(OC)c(C(c3ccccc3)C(O)(CCN(C)C)c3cccc4ccccc34)cc2c1 (single isomer, unassigned) [Compound 25] ?
Return: 8.46

* * *

Provide the recorded IC90 for the entries that follow.
System: Streptococcus pyogens (ATCC8668)
Assay: In-vitro anti-bacterial microtitre plate assay, IC90, S. pyogens
Format: cell-based
Settings: Streptococcus, ATCC8668, 24 h, 90% inhibitory concentration for bacterial growth, resazurin fluorescence, read-out: IC90 values SPY 8668
Answers are plain numbers, in µg/mL.

Illustrative cases are given below, each with its answer.
Enquiry: Endpoint output: IC90 of C=Cc1ccc2nc(OC)c(C(c3ccccc3)C(O)(CCN(C)C)c3cccc4ccccc34)cc2c1 (stereo not drawn) [Compound 9] . Value?
Return: 50.3

Enquiry: Endpoint output: IC90 of COc1nc2ccc(N3CCOCC3)cc2cc1C(c1ccccc1)C(O)(CCN(C)C)c1cccc2ccccc12 (single isomer, unassigned) [Compound 30] . Value?
Return: 44.6

Continuing:
Enquiry: Endpoint output: IC90 of C/C=C/c1ccc2nc(OC)c(C(c3ccccc3)C(O)(CCN(C)C)c3cccc4ccccc34)cc2c1 (single isomer, unassigned) [Compound 12] . Value?
Return: 51.7

* * *

Tested on: M. Smegmatis (ATCC607)
Experiment: In-vitro anti-bacterial activity against strain M. smegmatis ATCC607
Type: cell-based
Details: 90% inhibitory concentration for bacterial growth, 48 hours, Alamar Blue fluorescence
Please note: IC90 values MSM 1 ATCC607 exactly at 2 µg/mL is n. Only values below 2 µg/mL get y.

Answered cases to consult:
Enquiry: Does this compound meet the criterion IC90 values MSM 1 ATCC607 < 2 µg/mL? COc1nc2ccc(CN)cc2cc1C(c1ccccc1)C(O)(CCN(C)C)c1cccc2ccccc12 (stereo not shown) [Compound 19]
Return: y

Enquiry: Does this compound meet the criterion IC90 values MSM 1 ATCC607 < 2 µg/mL? COc1nc2ccc(/C=N/O)cc2cc1C(c1ccccc1)C(O)(CCCCN(C)C)c1ccc2ccccc2c1 (single isomer, unassigned) [Compound 32]
Return: n

Enquiry: Does this compound meet the criterion IC90 values MSM 1 ATCC607 < 2 µg/mL? COc1nc2ccc(N)cc2cc1C(c1ccccc1)C(O)(CCN(C)C)c1cccc2ccccc12 (single isomer, unassigned) [Compound 15]
Return: y

Enquiry: Does this compound meet the criterion IC90 values MSM 1 ATCC607 < 2 µg/mL? COc1nc2ccc(CN)cc2cc1C(c1ccccc1)C(O)(CCN(C)C)c1cccc2ccccc12 (single isomer, unassigned) [Compound 20]
Return: n

Enquiry: Does this compound meet the criterion IC90 values MSM 1 ATCC607 < 2 µg/mL? COc1nc2ccc(/C=N/O)cc2cc1C(c1ccccc1)C(O)(CCN(C)C)c1cccc2ccccc12 (single isomer, unassigned) [Compound 24]
Return: n

Continuing:
Enquiry: Does this compound meet the criterion IC90 values MSM 1 ATCC607 < 2 µg/mL? C/C=C/c1ccc2nc(OC)c(C(c3ccccc3)C(O)(CCN(C)C)c3cccc4ccccc34)cc2c1 (single isomer, unassigned) [Compound 12]
Return: y

Enquiry: Does this compound meet the criterion IC90 values MSM 1 ATCC607 < 2 µg/mL? COc1nc2ccc(N3CCOCC3)cc2cc1C(c1ccccc1)C(O)(CCN(C)C)c1ccccc1 (single isomer, unassigned) [Compound 36]
Return: n

* * *

Tested on: M. Smegmatis (ATCC607)
Experiment: In-vitro anti-bacterial activity against strain M. smegmatis ATCC607
Assay type: cell-based
Details: Mycolicibacterium smegmatis, ATCC607, 48 h, 90% inhibitory concentration for bacterial growth, Alamar Blue fluorescence, read-out: IC90 values MSM 1 ATCC607
Provide the recorded IC90 for the entries that follow.
One number for each entry, in µg/mL.

Illustrative cases are given below, each with its answer.
Enquiry: Query for M. Smegmatis (ATCC607): what IC90 does the record show for COc1nc2ccc(N3CCOCC3)cc2cc1C(c1ccccc1)C(O)(CCN(C)C)c1cccc2ccccc12 (single isomer, unassigned) [Compound 30] ?
Return: 0.1

Enquiry: Query for M. Smegmatis (ATCC607): what IC90 does the record show for COc1nc2ccc(C(=O)N3CCN(C)CC3)cc2cc1C(c1ccccc1)C(O)(CCN(C)C)c1cccc2ccccc12 (single isomer, unassigned) [Compound 31] ?
Return: 0.4

Enquiry: Query for M. Smegmatis (ATCC607): what IC90 does the record show for C=Cc1ccc2nc(OC)c(C(c3ccc(Cl)cc3)C(O)(CCN(C)C)c3ccccc3)cc2c1 (single isomer, unassigned) [Compound 2] ?
Return: 1.4

Enquiry: Query for M. Smegmatis (ATCC607): what IC90 does the record show for C=Cc1ccc2nc(OC)c(C(c3ccccc3)C(O)(CCCCN3CCCCC3)c3ccccc3)cc2c1 (single isomer, unassigned) [Compound 34] ?
Return: 1.7

Enquiry: Query for M. Smegmatis (ATCC607): what IC90 does the record show for COc1nc2ccc(CNC(C)=O)cc2cc1C(c1ccccc1)C(O)(CCN(C)C)c1cccc2ccccc12 (single isomer, unassigned) [Compound 27] ?
Return: 4.4

Now look at this one.
Enquiry: Query for M. Smegmatis (ATCC607): what IC90 does the record show for COc1nc2ccc(/C=N/O)cc2cc1C(c1ccccc1)C(O)(CCCCN(C)C)c1ccccc1 (single isomer, unassigned) [Compound 3] ?
Return: 7.9
